Would you kindly list growth inhibition for each of these molecules?
Assay: NCI Yeast Anticancer Drug Screen. Data for the rad50EPP+ strain (AID 151);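 also: 0% = growth of vehicle-treated control cultures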
Details: S. cerevisiae rad50 mutant strain, at 1.2 µM, hits give high values
The panel holds about 79,000 compounds, 15% with a hit somewhere; the sample as a whole holds those more often.
State the answer as a number, implicitly in %.

Task: Any idea what its growth inhibition is? The molecule is S=C1NC2(CCCCC2)NC12CCCCC2
Result: -2

Task: Any idea what its growth inhibition is? The molecule is C=C[C@H]1CN2CC[C@H]1C[C@@H]2[C@@H](O)c1ccnc2ccccc12
Result: -1

Task: Any idea what its growth inhibition is? The molecule is Nc1nc(-c2ccccc2)c(-c2ccccc2)[se]1
Result: -1

Task: Any idea what its growth inhibition is? The molecule is C[C@]12CCC(=O)C=C1CC[C@@H]1C2CC[C@@]2(C)C1CC[C@@H]2OC(=O)C12OC1CCC2=O (some centres not stated)
Result: 9

Task: Any idea what its growth inhibition is? The molecule is CC1=C(O)C(=O)C=C2C1=CC=C1[C@@]2(C)CCC2(C)[C@@H]3C[C@@H](C)C(=O)C[C@]3(C)CC[C@]12C (some centres not stated)
Result: 9

Task: Any idea what its growth inhibition is? The molecule is Oc1ccc(Cl)cc1Cc1ccccc1
Result: -52

Task: Any idea what its growth inhibition is? The molecule is N#CC(C#N)=Cc1ccc(C#N)cc1
Result: -2

Task: Any idea what its growth inhibition is? The molecule is CS(=O)(=O)OCCN(CCOS(C)(=O)=O)c1ccc(C=O)cc1
Result: 4

Task: Any idea what its growth inhibition is? The molecule is CC[PH+](CC)CC.CC[PH+](CC)CC.[Au]
Result: 27

Task: Any idea what its growth inhibition is? The molecule is O=C(NNC(=O)OCC(Cl)(Cl)Cl)OCC(Cl)(Cl)Cl
Result: 0

Task: Any idea what its growth inhibition is? The molecule is CC12CCC(C1)C(C)(C)C2OC(=O)c1ccccc1N (configuration not stated)
Result: 6

Task: Any idea what its growth inhibition is? The molecule is COc1cc(O)c2c(O)c3c(c4c2c1[C@]1(C4)C(C)=CCCC1(C)C)[C@H](O)[C@@]1(O)CC(=O)C(C(N)=O)=C(O)[C@@]1(O)C3=O
Result: -52

Task: Any idea what its growth inhibition is? The molecule is CC[C@@]1(O)C[C@H](OC2CC(N(C)C)C(O)C(C)O2)c2c(O)c3c(c(O)c2[C@H]1OC1CC(N(C)C)C(O)C(C)O1)C(=O)c1cccc(O)c1C3=O (some centres not stated)
Result: 20

Task: Any idea what its growth inhibition is? The molecule is O=c1c2ccccc2[se]n1-c1cccnc1
Result: 67

Task: Any idea what its growth inhibition is? The molecule is OC(c1ccc(Br)cc1)C(Cl)(Cl)Cl (configuration not stated)
Result: 4

Task: Any idea what its growth inhibition is? The molecule is c1ccc2cc3n[se]nc3cc2c1
Result: 2

Task: Any idea what its growth inhibition is? The molecule is Oc1c(Br)cc(Br)cc1Br
Result: 3

Task: Any idea what its growth inhibition is? The molecule is [O-][n+]1c2cccc(O)c2[n+]([O-])c2cccc(O)c21
Result: 25

Task: Any idea what its growth inhibition is? The molecule is CCCCN(CCCC)CC(C(C)=O)C(c1ccccc1)c1c(O)c2ccccc2oc1=O (configuration not stated)
Result: -7

Task: Any idea what its growth inhibition is? The molecule is CCCCCCCCCCCCCCCCP(=O)(O)OCC(N)C(=O)O (configuration not stated)
Result: 0

Task: Any idea what its growth inhibition is? The molecule is CCC1(OC(=O)CN)C(=O)OCc2c1cc1n(c2=O)Cc2cc3ccccc3nc2-1 (configuration not stated)
Result: 45

Task: Any idea what its growth inhibition is? The molecule is COC(=O)C(F)C(Br)C(=O)OC (configuration not stated)
Result: 28
